Reference source: ChEMBL document CHEMBL1201862

- Test system: HOP-92
- Protocol summary: NCI tumour cell line growth inhibition, 48 h
Activity calls are given as the source filed them. No stated cut-off is given here; in the data, active = GI50 up to about 1.1 µM and inactive = higher.
Assay readout: GI50

The molecule listed as `O=C(Nc1ccc(Cl)c(C(F)(F)F)c1)C(=O)c1c(O)c2ccccc2oc1=O` shows GI50 equal to > 100 µM (inactive)

The molecule listed as COC(=O)C(C(=O)C(=O)Nc1ccc([N+](=O)[O-])cc1)c1nc2ccc([N+](=O)[O-])cc2nc1O (centres undefined) shows GI50 equal to > 100 µM (inactive)

The molecule listed as Cc1ccc2[nH]c3c(c2c1)C1CCC(C(C)(C)C)CC1C1C(=O)N(c2ccc(Oc4ccccc4)cc2)C(=O)C31 (centres undefined) shows GI50 equal to 14.4 µM (inactive)

The molecule listed as `CCN(CC)CCCCC1CCN(CC(=O)N2c3ccccc3NC(=O)c3ccccc32)CC1` shows GI50 equal to > 100 µM (inactive)

The molecule listed as `NCCSCc1ccccc1Cl` shows GI50 equal to 68.2 µM (inactive)
